OBSERVABLE: logP
Please respond with just the number, no unit label.

Reference set (6 entries):
MOLECULE	logP
C=CCOc1noc2c1CNCC2	0.56
CNc1nc(C)nc2c1ncn2[C@@H]1O[C@H](CO)C[C@@H]1F	0.64
NC(=O)c1ccc(I)cc1	1.99
FC(F)(F)c1nc2c(Cl)cccc2[nH]1	2.93
CCCCC#N	1.12
NC(=O)CCc1ccccn1	-0.27

Input line: Which value of logP has been reported for `CN(C)C(=O)c1ccco1` in the records?
Output line: 0.41

Input line: Try this molecule next: `Nc1cccc(Cl)c1`
Output line: 1.88

Input line: Try this molecule next: `CN(C)C(=O)c1cccs1`
Output line: 0.75

Input line: Try this molecule next: `COc1ccc(COC(=O)N(C)C)cc1`
Output line: 2.2

Input line: Try this molecule next: O=[N+]([O-])c1ccc(OC2OC(CO)C(OC3OC(CO)C(O)C(O)C3O)C(O)C2O)cc1 (stereo not drawn)
Output line: -1.39

Input line: Try this molecule next: `CC(C)NC(=O)c1cccnc1`
Output line: 0.59

Input line: Try this molecule next: `O=C1CC(=O)c2ccccc21`
Output line: 0.61

----------
- REPORTED_CONDITIONS: pH 5.0
OBSERVABLE: logD
Please respond with just the number, no unit label.

Input line: Which value of logD has been reported for `N=C(NCCCCCCNC(=N)NC(=N)Nc1ccc(Cl)cc1)NC(=N)Nc1ccc(Cl)cc1` in the records?
Output line: 0.08

----------
Label y when logP is at or above 3; otherwise label n.

COMPOUND	CLASS
CCOP(=S)(OCC)Oc1cc(C)nc(N(CC)CC)n1	y
CC(=O)Oc1ccccc1C(C)C	n

Input line: Evaluate `O=C(CCNNC(=O)c1ccncc1)NCc1ccccc1` : logP at minimum 3?
Output line: n

Input line: Try this compound next: OCCN1CCN(CCCC2c3ccc(F)cc3Sc3ccc(C(F)(F)F)cc32)CC1 (configuration not stated)
Output line: y

Input line: Try this compound next: `Cc1cccc(C(N)=O)c1`
Output line: n

----------
In this section, each of the molecules is paired with its reported logP.
Please respond with just the number, no unit label.

Reference set (5 entries):
MOLECULE	VALUE_OBSERVED
CCCC(=O)Nc1ccccc1	2.05
CC(C)(C)C(=O)Nc1ccccc1	1.99
CCCCNCc1cccnc1	1.34
Clc1ccc(-c2cc(Cl)ccc2Cl)c(Cl)c1	6.22
COc1nnc(OC)c2ccccc12	2.22

Input line: Which value of logP has been reported for `Oc1ccc2cccc(O)c2c1` in the records?
Output line: 1.94

Input line: Try this molecule next: `CCCCOC(=O)N(C)SN(C)C(=O)Oc1cccc2c1OC(C)(C)C2`
Output line: 4.7

----------
Label label 1 when logP is at or above 2; otherwise label label 0.

Input line: Evaluate `OCCCc1ccccc1` : logP at minimum 2?
Output line: label 0

Input line: Try this compound next: CC1CC2OC(=O)C(C)C2C(OC(=O)CC(=O)OC2C3C(CC(C)C4CCC(=O)C42C)OC(=O)C3C)C2(C)C(=O)CCC12 (stereo not given)
Output line: label 0

----------
OBSERVABLE: logP
Please respond with just the number, no unit label.

Reference set (8 entries):
COMPOUND	logP
O=C(O)c1ccc(Cl)cc1[N+](=O)[O-]	2.08
CS(=O)(=O)ON1C(=O)c2ccc([N+](=O)[O-])cc2C1=O	1.71
c1ccc2[nH]ncc2c1	1.77
CC1=C(N2CC2)C(=O)C(CCOC(N)=O)=C(N2CC2)C1=O	0.16
COc1cccc(O)c1	1.34
CCn1nnc(Oc2ccc(NC(=O)N(C)C)cc2Cl)n1	1.7
OC(c1ccccc1)(C(F)(F)F)C(F)(F)F	3.41
O=[N+]([O-])c1ccccc1Br	2.52

Input line: Which value of logP has been reported for O=[N+]([O-])c1ccc(OC2OC(CO)C(O)C(O)C2O)cc1 (centres undefined) in the records?
Output line: -0.44

Input line: Try this compound next: CC(CN(C)C)CN1c2ccccc2S(=O)(=O)c2ccccc21 (centres undefined)
Output line: 2.51

----------
OBSERVABLE: logP
Please respond with just the number, no unit label.

COMPOUND	OBSERVABLE	VALUE_OBSERVED
O=NN(CCCl)C(=O)NCCCl	logP	1.53
NC(=O)c1ccc(Cl)cc1	logP	1.55
CCCCNc1ccc(C(=O)OCCOCCOCCOCCOCCOCCOCCOCCOCCOC)cc1	logP	2.45
c1ccc2nccnc2c1	logP	1.32
NS(=O)(=O)c1ccc2c(c1)S(=O)(=O)NC(CC1CCCC1)N2 (configuration not stated)	logP	1.24

Input line: Which value of logP has been reported for `O=S1(=O)C=Cc2ccccc21` in the records?
Output line: 0.88

Input line: Try this compound next: `COc1c(O)cc(Cl)c(Cl)c1Cl`
Output line: 3.77

Input line: Try this compound next: `CCCCC(=O)O[C@]1(C(=O)CO)[C@@H](C)C[C@H]2[C@@H]3CCC4=CC(=O)C=C[C@]4(C)[C@@]3(F)[C@@H](O)C[C@@]21C`
Output line: 3.6

Input line: Try this compound next: `Nc1ncc(Cc2ccccc2)c(N)n1`
Output line: 1.58

----------
- REPORTED_CONDITIONS: pH 7.4
OBSERVABLE: logD
Please respond with just the number, no unit label.

Input line: Which value of logD has been reported for `O=C(O)CCCc1ccc(N(CCCl)CCCl)cc1` in the records?
Output line: 1.7

----------
In this section, each of the compounds is paired with its reported logP.
Please respond with just the number, no unit label.

Reference set (8 entries):
COMPOUND	VALUE_OBSERVED
Nc1ncc([N+](=O)[O-])s1	0.83
NNc1ccc([N+](=O)[O-])cc1	1.41
Cc1cnccn1	0.21
CN(C)C(=O)OCc1ccc(Cl)cc1	2.93
c1ccc(Sc2ccccc2)cc1	4.45
Cc1cc(NS(=O)(=O)c2ccc(N)cc2)nc(C)n1	-0.33
O=[N+]([O-])c1cc(Cl)ccc1Cl	3.09
CCOC(=O)c1cc2ccc(CC)cc2nn1	2.31

Shifting focus to the compound that follows.
Input line: Which value of logP has been reported for `CCCCCN(C)/N=N/c1ccc(C(N)=O)cc1` in the records?
Output line: 3.18

----------
OBSERVABLE: logP

MOLECULE	OBSERVABLE	VALUE_OBSERVED
CCCCCOC(=O)c1ccc(N)cc1	logP	3.48
CC1(O)CCC2C3CCC4=CC(=O)CCC4(C)C3(F)C(O)CC21C (stereo not drawn)	logP	2.38
COCc1ccccc1NC(=O)OCCN1CCCCC1	logP	2.2

Input line: Which value of logP has been reported for `CC(=O)N[C@@H](Cc1ccccc1)C(=O)N[C@@H](CCC(N)=O)C(N)=O` in the records?
Output line: -1.03

Input line: Try this molecule next: `Nc1ccc(S(=O)(=O)Nc2ccc(S(N)(=O)=O)cc2)cc1`
Output line: 0.35

Input line: Try this molecule next: CCCCC1CC(C(=O)NC(C(C)Cl)C2OC(SC)C(O)C(O)C2O)N(CC)C1 (stereo not drawn)
Output line: 3.21

Input line: Try this molecule next: `Clc1ccccc1Cl`
Output line: 3.43

Input line: Try this molecule next: `ClC(Cl)C(Cl)(Cl)Cl`
Output line: 3.22

Input line: Try this molecule next: `Nc1ccc(S(=O)(=O)Nc2cccnc2Cl)cc1`
Output line: 1.58

Input line: Try this molecule next: `CCCCN(C)C`
Output line: 1.7

Input line: Try this molecule next: `CCCCn1nnc2ccccc21`
Output line: 2.57

Input line: Try this molecule next: CN(C)C(N(C)C)=S(I)c1cccc(Cl)c1 (stereo not drawn)
Output line: -0.17

Input line: Try this molecule next: `COC1=CC(=O)C[C@@H](C)[C@]12Oc1c(Cl)c(OC)cc(OC)c1C2=O`
Output line: 2.18

----------
OBSERVABLE: logP
Please respond with just the number, no unit label.

COMPOUND	logP
CCCC(C)C1(CC)C(=O)N=C(O)NC1=O (stereo unspecified)	2.1

Input line: Which value of logP has been reported for `Cc1ccnc2ccccc12` in the records?
Output line: 2.61

Input line: Try this compound next: CC1(c2ccncc2)CCC(=O)NC1=O (stereo unspecified)
Output line: 0.07

Input line: Try this compound next: `CC(C)(C)NC(=O)NO`
Output line: 0.5

Input line: Try this compound next: `Cc1ccc(N)nc1`
Output line: 1.02

Input line: Try this compound next: `Cc1ccc(COC(=O)N(C)C)cc1`
Output line: 2.63

----------
Label yes when logP is at or above 1; otherwise label no.

Examples with answers:
COMPOUND	CLASS
CC(=O)c1ccc(N(C)C)cc1	yes
N#Cc1cccc(F)c1	yes
O=C1CN=C(c2ccccc2C(F)(F)F)c2cc([N+](=O)[O-])ccc2N1	yes

Input line: Evaluate `S=C=Nc1ccc(Br)cc1` : logP at minimum 1?
Output line: yes

Input line: Try this compound next: `O=C(O)c1cccc([N+](=O)[O-])c1C(=O)O`
Output line: no

Input line: Try this compound next: `Nc1ccc(Cl)c([N+](=O)[O-])c1`
Output line: yes

Input line: Try this compound next: `Nc1cccc(F)c1`
Output line: yes

Input line: Try this compound next: `c1cocn1`
Output line: no
